pKd: recorded values
target: TcdB 1285-1804 with C-terminal Avitag (RBD toxin fragment) (C. difficile, UniProt P18177 1285-1804); experiment: SPR; settings: both partners purified
Sequence (P18177 1285-1804): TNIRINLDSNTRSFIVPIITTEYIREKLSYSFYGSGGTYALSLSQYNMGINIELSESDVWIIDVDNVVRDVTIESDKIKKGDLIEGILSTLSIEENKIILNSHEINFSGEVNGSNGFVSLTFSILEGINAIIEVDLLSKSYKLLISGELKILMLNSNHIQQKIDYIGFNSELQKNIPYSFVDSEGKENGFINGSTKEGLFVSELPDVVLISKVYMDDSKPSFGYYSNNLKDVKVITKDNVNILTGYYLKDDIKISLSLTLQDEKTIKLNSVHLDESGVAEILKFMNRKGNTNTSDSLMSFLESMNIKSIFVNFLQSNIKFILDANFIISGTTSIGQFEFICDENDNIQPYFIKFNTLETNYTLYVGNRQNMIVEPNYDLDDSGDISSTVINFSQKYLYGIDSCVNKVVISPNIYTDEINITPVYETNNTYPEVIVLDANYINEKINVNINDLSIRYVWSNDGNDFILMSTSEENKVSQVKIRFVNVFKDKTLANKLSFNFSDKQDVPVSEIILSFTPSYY
pKd: −log10 of the molar value.
result_type: pKd

{"binder": "fzd48 (designed binder) KEELEKMIEELKKLIENGDKENFIKLFDEAFKKAKESRDPRTIASVWTLVLEFKNKN", "result": 14.01}
{"binder": "fzd24 (designed binder) GEKSKLELLCKMLLTKAKLTGKQKYKNDLKELIEYLNEKGYPDLAKEASAKLEEI", "result": 10.82}
{"binder": "fzd13 (designed binder) AEKEVQELIDKALNTPDPKVASKYIISAVYVAAKARDPSLFQSALDTAKKL", "result": 11.26}
